molecular target: UniProt P00742
Assign labels as follows, please: TRUE for Ki below 0.9 µM; FALSE for Ki equal to or exceeding 0.9 µM.

[
  {
    "mol": "N=C(N)c1ccc2nc(-c3cc(Cl)cc(-c4ccccc4)c3O)[nH]c2c1",
    "class-label": "FALSE"
  },
  {
    "mol": "N=C(N)c1ccc2nc(-c3cc(Br)ccc3O)[nH]c2c1",
    "class-label": "FALSE"
  },
  {
    "mol": "N=C(N)c1ccc2nc(-c3cccc([N+](=O)[O-])c3O)[nH]c2c1",
    "class-label": "FALSE"
  },
  {
    "mol": "COc1cccc(-c2nc3ccc(C(=N)N)cc3[nH]2)c1O",
    "class-label": "FALSE"
  },
  {
    "mol": "N=C(N)c1ccc2[nH]c(-c3cc([N+](=O)[O-])cc(-c4ccccc4)c3O)cc2c1",
    "class-label": "TRUE"
  },
  {
    "mol": "N=C(N)c1ccc2[nH]c(-c3cc(Br)cc(-c4ccccc4)c3O)cc2c1",
    "class-label": "TRUE"
  },
  {
    "mol": "CCN(CC)c1ccc(-c2nc3cc(C(=N)N)ccc3[nH]2)c(O)c1",
    "class-label": "FALSE"
  },
  {
    "mol": "Cc1ccc(-c2nc3ccc(C(=N)N)cc3[nH]2)c(O)c1",
    "class-label": "FALSE"
  },
  {
    "mol": "Cc1ccc(O)c(-c2nc3cc(C(=N)N)ccc3[nH]2)c1",
    "class-label": "FALSE"
  }
]

* * *

Below, each entry is listed with its recorded Ki.
target: Urokinase-type plasminogen activator (Homo sapiens, UniProt P00749); assay: ComInhibition of Human Serine Protease Urokinase Plasminogen Activator (u-PA).

[
  {
    "mol": "N=C(N)c1ccc2nc(-c3cc(Br)ccc3O)[nH]c2c1",
    "Ki": "3.7 µM"
  },
  {
    "mol": "Cc1ccc(-c2nc3ccc(C(=N)N)cc3[nH]2)c(O)c1",
    "Ki": "3.6 µM"
  },
  {
    "mol": "Cc1cc(Br)c(O)c(-c2cc3cc(C(=N)N)ccc3[nH]2)c1",
    "Ki": "0.055 µM"
  },
  {
    "mol": "Cc1cccc(-c2nc3cc(C(=N)N)ccc3[nH]2)c1O",
    "Ki": "8 µM"
  },
  {
    "mol": "N=C(N)c1ccc2[nH]c(-c3cc([N+](=O)[O-])cc(-c4ccccc4)c3O)cc2c1",
    "Ki": "0.025 µM"
  },
  {
    "mol": "N=C(N)c1ccc2[nH]c(-c3cccc(-c4ccccc4)c3)cc2c1",
    "Ki": "13 µM"
  }
]

* * *

Below, each entry is listed with its recorded pKi.
target: Serine protease 1 (Homo sapiens, UniProt P07477); assay: Activity against Human Serine Protease Trypsin
Sequence (P07477 whole entry): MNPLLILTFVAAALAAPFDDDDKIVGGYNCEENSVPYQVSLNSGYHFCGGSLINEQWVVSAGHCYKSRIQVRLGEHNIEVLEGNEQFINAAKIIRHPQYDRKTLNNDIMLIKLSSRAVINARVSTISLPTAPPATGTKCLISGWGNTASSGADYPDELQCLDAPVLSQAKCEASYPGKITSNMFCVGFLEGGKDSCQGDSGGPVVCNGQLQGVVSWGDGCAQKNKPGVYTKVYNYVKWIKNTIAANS
pKi: −log10 of the molar value.

[
  {
    "mol": "N=C(N)c1ccc2nc(-c3c(O)cccc3O)[nH]c2c1",
    "pKi": 5.22
  },
  {
    "mol": "N=C(N)c1ccc2[nH]c(-c3ccccc3O)cc2c1",
    "pKi": 5.10
  },
  {
    "mol": "COc1c(-c2ccccc2)cccc1-c1cc2cc(C(=N)N)ccc2[nH]1",
    "pKi": 5.92
  },
  {
    "mol": "N=C(N)c1ccc2nc(-c3cc(Cl)cc(-c4ccccc4)c3O)[nH]c2c1",
    "pKi": 5.48
  },
  {
    "mol": "Cc1cc(-c2ccccc2)c(O)c(-c2cc3cc(C(=N)N)ccc3[nH]2)c1",
    "pKi": 6.89
  },
  {
    "mol": "N=C(N)c1ccc2[nH]c(-c3cc(Br)cc(-c4ccccc4)c3O)cc2c1",
    "pKi": 6.15
  },
  {
    "mol": "N=C(N)c1ccc2nc(-c3cccc(-c4ccccc4)c3O)[nH]c2c1",
    "pKi": 5.19
  },
  {
    "mol": "N=C(N)c1ccc2[nH]c(-c3cccc(-c4ccccc4)c3O)cc2c1",
    "pKi": 6.89
  },
  {
    "mol": "N=C(N)c1ccc2[nH]c(-c3cc(Br)cc(Br)c3O)cc2c1",
    "pKi": 6.00
  },
  {
    "mol": "N=C(N)c1ccc2nc(-c3cc([N+](=O)[O-])ccc3O)[nH]c2c1",
    "pKi": 4.52
  },
  {
    "mol": "N=C(N)c1ccc2[nH]c(-c3cccc(Br)c3O)cc2c1",
    "pKi": 6.54
  },
  {
    "mol": "N=C(N)c1ccc2[nH]c(-c3cc(Cl)cc(-c4ccccc4)c3O)cc2c1",
    "pKi": 6.89
  }
]

* * *

target: Coagulation factor X (Homo sapiens, UniProt P00742)
Sequence (P00742 41-179 limits assumed): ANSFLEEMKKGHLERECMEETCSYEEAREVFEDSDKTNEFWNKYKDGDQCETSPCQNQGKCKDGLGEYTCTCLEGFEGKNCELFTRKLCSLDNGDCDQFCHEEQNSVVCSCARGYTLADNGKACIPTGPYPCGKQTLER
Sequence (P00742 235-488 limits assumed): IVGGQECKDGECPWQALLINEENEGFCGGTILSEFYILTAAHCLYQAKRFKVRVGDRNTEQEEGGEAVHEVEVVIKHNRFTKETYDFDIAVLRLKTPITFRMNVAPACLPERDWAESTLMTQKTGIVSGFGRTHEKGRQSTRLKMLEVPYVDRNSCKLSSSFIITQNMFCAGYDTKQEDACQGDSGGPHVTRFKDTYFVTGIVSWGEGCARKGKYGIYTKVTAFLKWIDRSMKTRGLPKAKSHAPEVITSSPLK
pKi: −log10 of the molar value.
Everything with pKi lower than 5 is not fulfilled; everything else, including exactly 5, is fulfilled.

[
  {
    "mol": "N=C(N)c1ccc2nc(-c3ccccc3)[nH]c2c1",
    "class-label": "not fulfilled"
  },
  {
    "mol": "N=C(N)c1ccc2[nH]c(-c3ccccc3O)cc2c1",
    "class-label": "fulfilled"
  },
  {
    "mol": "N=C(N)c1ccc2oc(-c3cccc(-c4ccccc4)c3O)cc2c1",
    "class-label": "fulfilled"
  },
  {
    "mol": "Cc1cc(Br)c(O)c(-c2cc3cc(C(=N)N)ccc3[nH]2)c1",
    "class-label": "fulfilled"
  },
  {
    "mol": "N=C(N)c1ccc2nc(-c3cc(F)ccc3O)[nH]c2c1",
    "class-label": "fulfilled"
  },
  {
    "mol": "N=C(N)c1ccc2[nH]c(-c3cccc(Br)c3O)nc2c1",
    "class-label": "fulfilled"
  },
  {
    "mol": "Cn1c(-c2cccc(-c3ccccc3)c2O)nc2ccc(C(=N)N)cc21",
    "class-label": "not fulfilled"
  },
  {
    "mol": "N=C(N)c1ccc2[nH]c(-c3cc(Br)cc(Br)c3O)cc2c1",
    "class-label": "fulfilled"
  },
  {
    "mol": "N=C(N)c1ccc2[nH]c(-c3cc([N+](=O)[O-])cc(Br)c3O)cc2c1",
    "class-label": "fulfilled"
  },
  {
    "mol": "N=C(N)c1ccc2[nH]c(-c3cccc(-c4ccccc4)c3O)cc2c1",
    "class-label": "fulfilled"
  },
  {
    "mol": "COc1c(-c2ccccc2)cccc1-c1cc2cc(C(=N)N)ccc2[nH]1",
    "class-label": "not fulfilled"
  },
  {
    "mol": "N=C(N)c1ccc2nc(-c3c(O)cccc3O)[nH]c2c1",
    "class-label": "fulfilled"
  },
  {
    "mol": "N=C(N)c1ccc2[nH]c(-c3cccc(F)c3O)nc2c1",
    "class-label": "fulfilled"
  },
  {
    "mol": "Cc1cc(-c2ccccc2)c(O)c(-c2cc3cc(C(=N)N)ccc3[nH]2)c1",
    "class-label": "fulfilled"
  },
  {
    "mol": "N=C(N)c1ccc2nc(-c3ccccc3O)[nH]c2c1",
    "class-label": "not fulfilled"
  },
  {
    "mol": "Cc1cc(Br)c(O)c(-c2nc3ccc(C(=N)N)cc3[nH]2)c1",
    "class-label": "fulfilled"
  },
  {
    "mol": "N=C(N)c1ccc2[nH]c(-c3cccc(-c4ccccc4)c3)cc2c1",
    "class-label": "not fulfilled"
  },
  {
    "mol": "N=C(N)c1ccc2[nH]c(-c3cccc(Br)c3O)cc2c1",
    "class-label": "fulfilled"
  },
  {
    "mol": "N=C(N)c1ccc2[nH]c(-c3cc(Cl)cc(-c4ccccc4)c3O)cc2c1",
    "class-label": "fulfilled"
  }
]

* * *

Below, each entry is listed with its recorded log10 Ki.
target: Prothrombin (Homo sapiens, UniProt P00734); assay: Inhibition of Human Serine Protease Thrombin.
quantity-name: log10 Ki (log10 of the value in µM)

[
  {
    "mol": "Cc1ccc(-c2nc3ccc(C(=N)N)cc3[nH]2)c(O)c1",
    "log10 Ki": 1.58
  },
  {
    "mol": "CCN(CC)c1ccc(-c2nc3cc(C(=N)N)ccc3[nH]2)c(O)c1",
    "log10 Ki": 1.95
  },
  {
    "mol": "COc1cccc(-c2nc3ccc(C(=N)N)cc3[nH]2)c1O",
    "log10 Ki": 1.90
  },
  {
    "mol": "Cc1cccc(-c2nc3cc(C(=N)N)ccc3[nH]2)c1O",
    "log10 Ki": 1.68
  },
  {
    "mol": "Cc1cc(Br)c(O)c(-c2nc3ccc(C(=N)N)cc3[nH]2)c1",
    "log10 Ki": 0.43
  },
  {
    "mol": "N=C(N)c1ccc2nc(-c3cccc([N+](=O)[O-])c3O)[nH]c2c1",
    "log10 Ki": 0.04
  }
]
